# reported IC50; entries follow
Test system: MOLM-13 cells
EXPERIMENT DESCRIPTION: MOLM-13 Cell Proliferation Assay (indicator of DHODH inhibition)
Format: cell-based
RUN CONDITIONS: Homo sapiens, 72 Hours of culture, CellTiter-Glo, no uridine
Use nM as the unit, but write only the number.

Lookup: Consider the compound shown here: FC(F)(F)c1cc(C(F)(F)F)nc(N2CCc3c([nH]c4ccc(Cl)cc34)C2c2ccc(N3CCOCC3)nc2)n1 (stereo not drawn) What is its recorded IC50?
Found: 0.6

Lookup: Let us now turn to Cc1ccc(C2c3[nH]c4cc(F)c(Cl)cc4c3CCN2c2nc(C(F)(F)F)cc(C(F)(F)F)n2)cc1 (stereo not drawn)
Found: 0.9

Lookup: Same read-out for N#Cc1ccc(C2c3[nH]c4cc(F)c(Cl)cc4c3CCN2c2nccc(C(F)(F)F)n2)cc1 (stereo not drawn) ?
Found: 6.4

Lookup: Let us now turn to CN(C)c1ncc(C2c3[nH]c4cc(F)c(Cl)cc4c3CCN2c2nccc(C(F)(F)F)n2)cc1F (stereo not drawn)
Found: 9.8

Lookup: Field entry: CN1CCN(c2ncc([C@H]3c4[nH]c5ccc(Cl)cc5c4CCN3c3nc(C(F)(F)F)nc(C(F)(F)F)n3)cn2)CC1
Found: 0.4

====

Reported values of pIC50 for individual entries
System: MOLM-13 cells
EXPERIMENT DESCRIPTION: MOLM-13 Cell Proliferation Assay (indicator of DHODH inhibition)
Format: cell-based
RUN CONDITIONS: Homo sapiens, 72 Hours of culture, CellTiter-Glo, no uridine
Keep in mind that pIC50 stands for -log10 of concentration in molar terms.

- Cc1ccc(C2c3[nH]c4cc(F)c(Cl)cc4c3CCN2c2nc(C)c(F)c(C)n2)c(F)c1F (stereo not drawn): 8.92
- Cc1ccnc(N2CCc3c([nH]c4ccc(Cl)cc34)C2c2ccc(C)c(F)c2F)n1 (stereo not drawn): 8.80

Please examine the following record next.
Lookup: Which value of pIC50 has been reported for CCCCOC(=O)c1ccnc(N2CCc3c([nH]c4ccc(Cl)cc34)C2c2ccc(C)c(F)c2F)n1 (stereo not drawn) in the records?
Found: 8.85

====

Quick reference: pIC50 of the listed items.
Tested on: MOLM-13 cells
EXPERIMENT DESCRIPTION: MOLM-13 Cell Proliferation Assay (indicator of DHODH inhibition)
Format: cell-based
RUN CONDITIONS: Homo sapiens, 72 Hours of culture, CellTiter-Glo, no uridine
Just the number, please; pIC50 means minus log10 of the concentration in mol/L.

- Fc1ccc(C2c3[nH]c4ccc(Cl)cc4c3CCN2c2ncc(Cl)cn2)cc1 (centres unmarked): 7.50
- Cc1ccc([C@H]2c3[nH]c4ccc(Br)cc4c3CCN2c2nc(C(F)(F)F)cc(C(F)(F)F)n2)c(F)c1F: 9.10
- Cc1cnn(-c2ccc3[nH]c4c(c3c2)CCN(c2nc(C(F)(F)F)cc(C(F)(F)F)n2)C4c2cnc(N3CCOCC3)nc2)n1 (centres unmarked): 8.07

Lookup: pIC50 for Cc1ccc(C2c3[nH]c4cc(F)c(Cl)cc4c3CCN2c2ncc(Cl)cn2)c(F)c1F (centres unmarked) ?
Found: 8.24

Lookup: Then this compound: Cc1ccc(C2c3[nH]c4ccc(Cl)cc4c3CCN2c2nc(C)nc(C)n2)cc1 (centres unmarked)
Found: 7.93

Lookup: Queued: Fc1cnc(N2CCc3c([nH]c4cc(F)c(Cl)cc34)C2c2ccc(F)nc2)nc1 (centres unmarked)
Found: 6.86

Lookup: Next compound: Cc1nc(C)nc(N2CCc3c([nH]c4ccc(Cl)cc34)C2c2cnc(N3CC4CC3CO4)nc2)n1 (centres unmarked)
Found: 7.28

Lookup: Consider next the compound Fc1ccccc1C1c2[nH]c3ccc(Cl)cc3c2CCN1c1nccc(C(F)(F)F)n1 (centres unmarked) in the same way.
Found: 8.17

Lookup: Can you check Fc1ccc(C2c3[nH]c4ccc(Cl)cc4c3CCN2c2nccc(Cl)n2)cc1 (centres unmarked) next?
Found: 7.91

Lookup: Input Oc1ccccc1C1c2[nH]c3ccc(Cl)cc3c2CCN1c1nccc(C(F)(F)F)n1 (centres unmarked)
Found: 8.24

Lookup: Thanks! And Cc1nc(C)nc(N2CCc3c([nH]c4ccc(Cl)cc34)C2c2ccc(N3C[C@H]4C[C@@H]3CO4)nc2)n1 (some centres unmarked) ?
Found: 7.48

Lookup: What about FC(F)(F)c1ccnc(N2CCc3c([nH]c4ccc(Cl)cc34)C2c2cnc(N3CCC3)nc2)n1 (centres unmarked) ?
Found: 8.02

Lookup: # repeat for CN(C)c1ccc(C2c3[nH]c4cc(F)c(Cl)cc4c3CCN2c2nccc(C(F)(F)F)n2)cn1 (centres unmarked)
Found: 8.09

Lookup: Please do the same for Cc1nc(C)nc(N2CCc3c([nH]c4ccc(Cl)cc34)C2c2cnc(N3CCC3)nc2)n1 (centres unmarked) as well.
Found: 7.36

Lookup: And Cc1ccc(C2c3[nH]c4ccc(C)c(F)c4c3CCN2c2nccc(C(F)(F)F)n2)c(F)c1F (centres unmarked) ?
Found: 8.70

Lookup: Continue with Fc1cnc(N2CCc3c([nH]c4cc(F)c(Cl)cc34)C2c2cccc(F)c2)nc1 (centres unmarked)
Found: 7.05

Lookup: Do the same for Cc1nc(N2CCc3c([nH]c4cc(F)c(Cl)cc34)C2c2cccc(F)c2F)ncc1F (centres unmarked) please
Found: 8.07

====

System: MOLM-13 cells
EXPERIMENT DESCRIPTION: MOLM-13 Cell Proliferation Assay (indicator of DHODH inhibition)
Assay type: cell-based
RUN CONDITIONS: Homo sapiens, 72 Hours of culture, CellTiter-Glo, no uridine
pIC50: −log10 of the molar value.
Grouping key: pIC50. Bins: A (below 8), B (8 to below 9), C (9 or more)

Lookup: Which band does Cc1nc(N2CC(F)(F)C2)nc(N2CCc3c([nH]c4ccc(Cl)cc34)[C@@H]2c2cnc(N3CCOCC3)nc2)n1 [Compound 457] fall in?
Found: B

====

System: MOLM-13 cells
EXPERIMENT DESCRIPTION: MOLM-13 Cell Proliferation Assay (indicator of DHODH inhibition)
Assay type: cell-based
RUN CONDITIONS: Homo sapiens, 72 Hours of culture, CellTiter-Glo, no uridine
The entries below come with measured IC50 values attached.
Could you give me the number in nM? Just the number is fine.

Example compounds with recorded IC50:
• Fc1cc2[nH]c3c(c2cc1Cl)CCN(c1nccc(Cl)n1)C3c1cccc(F)c1F (centres unmarked) = 7.4
• Fc1cncc(C2c3[nH]c4ccc(Cl)c(F)c4c3CCN2c2nccc(C(F)(F)F)n2)c1 (centres unmarked) = 11.4
• Cc1nc(C)nc(N2CCc3c([nH]c4c(O)cc(Cl)cc34)C2c2ccc(N3CCOCC3)nc2)n1 (centres unmarked) = 13.5

Lookup: // lookup IC50 for COc1nc(C)nc(N2CCc3c([nH]c4ccc(Cl)cc34)C2c2cnc(N3CCOCC3)nc2)n1 (centres unmarked)
Found: 14.7

Lookup: Now consider OCc1ccc(C2c3[nH]c4cc(F)c(Cl)cc4c3CCN2c2nccc(C(F)(F)F)n2)cc1 (centres unmarked) .
Found: 7.1

====

Tested on: MOLM-13 cells
EXPERIMENT DESCRIPTION: MOLM-13 Uridine Rescue Assay
Type: cell-based
RUN CONDITIONS: Homo sapiens; MOLM-13 cell proliferation with 100 μM Uridine added, 72 Hours of culture
Consider the following compounds and their measured IC50 readings.
I only need the number, in µM, no unit after it.

Example compounds with recorded IC50:
• Cc1ccc(C2c3[nH]c4ccc(Cl)cc4c3CCN2c2nccc(C(F)(F)F)n2)c(F)c1 (stereo not drawn) = 6.91
• Cc1nc(C)nc(N2CCc3c([nH]c4ccc(Cl)cc34)C2c2cnc(N3CCOCC3)nc2)n1 (stereo not drawn) = 10.6
• Cc1cc(C#N)nc(N2CCc3c([nH]c4ccc(Cl)cc34)C2c2cnc(N3CCOCC3)nc2)n1 (stereo not drawn) = 6.81
• FC(F)(F)c1nc(N2CCc3c([nH]c4ccc(Cl)cc34)C2c2cnc(N3CCOCC3)nc2)nc(C(F)(F)F)n1 (stereo not drawn) = 6.64
• CN1CCN(c2ncc(C3c4[nH]c5ccc(Cl)cc5c4CCN3c3nc(C(F)(F)F)cc(C(F)(F)F)n3)cn2)CC1 (stereo not drawn) = 4.29
• FC(F)(F)c1cc(C(F)(F)F)nc(N2CCc3c([nH]c4ccc(Cl)cc34)C2c2cnc(N3CCOCC3)nc2)n1 (stereo not drawn) = 12.3
• Cc1ccc([C@H]2c3[nH]c4ccc(Cl)cc4c3CCN2c2nc(C(F)(F)F)cc(C(F)(F)F)n2)c(F)c1F = 14.7
• Cc1ccc([C@H]2c3[nH]c4ccc(Cl)cc4c3CCN2c2nccc(C(F)(F)F)n2)c(F)c1F = 12.4
• Cc1ccc(C2c3[nH]c4ccc([N+](=O)[O-])cc4c3CCN2c2nccc(C(F)(F)F)n2)cc1 (stereo not drawn) = 10.7
• N#Cc1ccc(C2c3[nH]c4ccc(Cl)cc4c3CCN2c2nccc(C(F)(F)F)n2)c(F)c1F (stereo not drawn) = 4.81

Lookup: Form field: reported IC50 of FC(F)(F)c1nc(N2CCc3c([nH]c4ccc(Cl)cc34)[C@@H]2c2ccc(N3CCOCC3)nc2)nc(C(F)(F)F)n1
Found: 5.88

Lookup: Input Nc1c(Cl)ccc2[nH]c3c(c12)CCN(c1nccc(C(F)(F)F)n1)C3c1cnc(N2CCOCC2)nc1 (stereo not drawn)
Found: 10.5
